Experiment: Metabolic stability in human liver microsomes assessed as parent compound remaining at 1 uM incubated for 45 mins
Assay type: ADME, Microsome
Conditions: read-out: Stabilty
remaining at 0.75 h, 1 µM vs 30%: less than gives label 1; not less than gives label 0.

{"smiles_str": "CCCc1ccnc2c1CC[C@@H]1CNCCN21", "label_class": "label 1"}
{"smiles_str": "CCCc1cncc2c1CC[C@@H]1CNCCN21", "label_class": "label 1"}
{"smiles_str": "FC(F)(F)CCc1cccc2c1CC[C@@H]1CNCCN21", "label_class": "label 0"}
{"smiles_str": "FC(F)(F)CCc1ccnc2c1CC[C@@H]1CNCCN21", "label_class": "label 0"}
{"smiles_str": "c1cc(CC2CCC2)c2c(n1)N1CCNC[C@H]1CC2", "label_class": "label 0"}
{"smiles_str": "CCCc1cccc2c1CC[C@@H]1CNCCN21", "label_class": "label 1"}
{"smiles_str": "CC(C)Cc1ccnc2c1CC[C@@H]1CNCCN21", "label_class": "label 1"}

* * *

Target: 5-hydroxytryptamine receptor 2C (Homo sapiens, UniProt P28335)
Sequence (P28335 whole entry): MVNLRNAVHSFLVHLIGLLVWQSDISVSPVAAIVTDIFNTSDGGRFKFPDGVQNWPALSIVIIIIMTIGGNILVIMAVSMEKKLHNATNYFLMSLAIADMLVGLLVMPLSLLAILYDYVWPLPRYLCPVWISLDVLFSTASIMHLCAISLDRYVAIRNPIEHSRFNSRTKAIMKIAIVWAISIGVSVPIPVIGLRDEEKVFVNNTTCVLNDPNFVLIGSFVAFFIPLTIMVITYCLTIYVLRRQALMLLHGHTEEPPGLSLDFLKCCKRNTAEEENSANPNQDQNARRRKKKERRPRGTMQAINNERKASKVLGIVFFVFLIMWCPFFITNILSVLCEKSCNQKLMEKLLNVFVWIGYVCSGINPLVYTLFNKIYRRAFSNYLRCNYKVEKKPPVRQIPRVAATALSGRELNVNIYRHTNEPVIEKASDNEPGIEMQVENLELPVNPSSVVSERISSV
Assay: Agonist activity at 5-HT2CR (unknown origin) transfected in human HEK293 cells by IP3 accumulation assay
pEC50: −log10 of the molar value.
measurement_type: pEC50

{"smiles_str": "c1cc2c(cn1)N1CCNC[C@H]1CC2", "relational_operator": "=", "numeric_readout": 6.50}
{"smiles_str": "c1ccc(Cc2ccnc3c2CC[C@@H]2CNCCN32)cc1", "relational_operator": "=", "numeric_readout": 9.90}
{"smiles_str": "c1cc(C2CC2)c2c(n1)N1CCNC[C@H]1CC2", "relational_operator": "=", "numeric_readout": 8.20}
{"smiles_str": "CCCc1ccnc2c1CC[C@@H]1CNCCN21", "relational_operator": "=", "numeric_readout": 10.20}
{"smiles_str": "FC(F)(F)CCc1cccc2c1CC[C@@H]1CNCCN21", "relational_operator": "=", "numeric_readout": 8.50}
{"smiles_str": "CC(C)Cc1ccnc2c1CC[C@@H]1CNCCN21", "relational_operator": "=", "numeric_readout": 9.40}
{"smiles_str": "c1cnc2c(c1)CC[C@@H]1CNCCN21", "relational_operator": "=", "numeric_readout": 7.00}
{"smiles_str": "CCCc1cccc2c1CC[C@@H]1CNCCN21", "relational_operator": "=", "numeric_readout": 9.70}
{"smiles_str": "c1cc2c(c(CC3CCC3)n1)CC[C@@H]1CNCCN21", "relational_operator": "<", "numeric_readout": 6.00}
{"smiles_str": "c1cc2c(cn1)CC[C@@H]1CNCCN21", "relational_operator": "<", "numeric_readout": 5.00}
{"smiles_str": "Clc1ccnc2c1CC[C@@H]1CNCCN21", "relational_operator": "=", "numeric_readout": 8.30}
{"smiles_str": "c1ccc(Cc2cncc3c2CC[C@@H]2CNCCN32)cc1", "relational_operator": "=", "numeric_readout": 9.20}

* * *

Each entry below carries its reported pKi.
Biological target: UniProt:P41595
Sequence (P41595 whole entry): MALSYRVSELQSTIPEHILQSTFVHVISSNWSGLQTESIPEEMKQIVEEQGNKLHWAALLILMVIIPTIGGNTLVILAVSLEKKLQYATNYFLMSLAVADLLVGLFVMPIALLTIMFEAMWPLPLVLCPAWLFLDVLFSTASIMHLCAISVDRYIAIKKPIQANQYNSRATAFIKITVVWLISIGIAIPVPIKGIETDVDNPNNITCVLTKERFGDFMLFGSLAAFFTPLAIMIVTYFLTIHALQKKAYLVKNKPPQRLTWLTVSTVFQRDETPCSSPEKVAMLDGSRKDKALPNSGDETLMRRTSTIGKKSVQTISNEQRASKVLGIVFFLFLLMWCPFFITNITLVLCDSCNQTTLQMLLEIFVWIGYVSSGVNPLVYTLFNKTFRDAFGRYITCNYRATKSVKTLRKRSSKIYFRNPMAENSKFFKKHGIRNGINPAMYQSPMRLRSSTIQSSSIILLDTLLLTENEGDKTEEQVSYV
Experiment: Displacement of [3H]-[…] from recombinant human 5HT2BR transfected in human HEK293 cells incubated for 45 mins by radioligand binding assay
pKi: −log10 of the molar value.

{"smiles_str": "CCCc1cccc2c1CC[C@@H]1CNCCN21", "pKi": 7.90}
{"smiles_str": "FC(F)(F)CCc1cccc2c1CC[C@@H]1CNCCN21", "pKi": 7.00}
{"smiles_str": "c1ccc(Cc2cncc3c2CC[C@@H]2CNCCN32)cc1", "pKi": 6.60}
{"smiles_str": "CC(C)Cc1ccnc2c1CC[C@@H]1CNCCN21", "pKi": 7.50}
